- target-or-test-system: glutathione S-transferase (GST)-fused full-length human Syk protein (Homo sapiens)
- Construct: (GST)-fused full-length human Syk protein; GST (glutathione S-transferase); purchased Carna Biosciences
- protocol: Syk enzyme assay
- Format: biochemical
- protocol-conditions: Syk enzyme assay, Test Example 1; read-out: IC50 of Syk-inhibitory activity
Entries and their IC50

{"molecule": "NC(=O)c1cc(F)c(NC2CCCCC2N)nc1Nc1ccc2cnn(CC3CC3)c2c1 (stereo not drawn)", "target-or-test-system": "glutathione S-transferase (GST)-fused full-length human Syk protein (Homo sapiens)", "IC50": "< 10 nM"}
{"molecule": "C[C@H](N)[C@@H](CC1CC1)Nc1nc(Nc2cncc(F)c2)c(C(N)=O)cc1F", "target-or-test-system": "glutathione S-transferase (GST)-fused full-length human Syk protein (Homo sapiens)", "IC50": "10 to 50 nM"}
{"molecule": "NC(=O)c1cc(F)c(N[C@@H]2CCCC[C@@H]2N)nc1Nc1cncc(-c2ccc(Cl)cc2)c1 (relative stereo)", "target-or-test-system": "glutathione S-transferase (GST)-fused full-length human Syk protein (Homo sapiens)", "IC50": "10 to 50 nM"}
{"molecule": "NC(=O)c1cc(F)c(N[C@@H]2CCCC[C@@H]2N)nc1Nc1cc(O)c2ncccc2c1 (relative stereo)", "target-or-test-system": "glutathione S-transferase (GST)-fused full-length human Syk protein (Homo sapiens)", "IC50": "< 10 nM"}
{"molecule": "C[C@H](N)[C@@H](CC1CC1)Nc1nc(Nc2ccc3c(cnn3C)c2)c(C(N)=O)cc1F", "target-or-test-system": "glutathione S-transferase (GST)-fused full-length human Syk protein (Homo sapiens)", "IC50": "< 10 nM"}
{"molecule": "CS(=O)(=O)Nc1cncc(Nc2nc(NC3CCCCC3N)c(F)cc2C(N)=O)c1 (stereo not drawn)", "target-or-test-system": "glutathione S-transferase (GST)-fused full-length human Syk protein (Homo sapiens)", "IC50": "100 to 1000 nM"}
{"molecule": "COCCOc1ccc2ccc(Nc3nc(NC4CCCCC4N)c(F)cc3C(N)=O)cc2n1 (stereo not drawn)", "target-or-test-system": "glutathione S-transferase (GST)-fused full-length human Syk protein (Homo sapiens)", "IC50": "< 10 nM"}
{"molecule": "NC(=O)c1cc(F)c(NC2CCCCC2N)nc1Nc1cccn2ccnc12 (stereo not drawn)", "target-or-test-system": "glutathione S-transferase (GST)-fused full-length human Syk protein (Homo sapiens)", "IC50": "100 to 1000 nM"}
{"molecule": "CCCC[C@@H](Nc1nc(Nc2cncc(C3CC3)c2)c(C(N)=O)cc1F)[C@H](C)N", "target-or-test-system": "glutathione S-transferase (GST)-fused full-length human Syk protein (Homo sapiens)", "IC50": "< 10 nM"}
{"molecule": "NC(=O)c1cc(F)c(N[C@@H]2CCCC[C@@H]2N)nc1Nc1cnc(N2CCOCC2)c(F)c1 (relative stereo) [Example 004-216]", "target-or-test-system": "glutathione S-transferase (GST)-fused full-length human Syk protein (Homo sapiens)", "IC50": "10 to 50 nM"}
{"molecule": "NC(=O)c1cc(F)c(N[C@@H]2CCCC[C@@H]2N)nc1Nc1cnc2cc(-n3nccn3)ccc2c1 (relative stereo)", "target-or-test-system": "glutathione S-transferase (GST)-fused full-length human Syk protein (Homo sapiens)", "IC50": "< 10 nM"}
{"molecule": "CC(C)C[C@H](CN)Nc1nc(Nc2ccc3c(cnn3CC(F)F)c2)c(C(N)=O)cc1F", "target-or-test-system": "glutathione S-transferase (GST)-fused full-length human Syk protein (Homo sapiens)", "IC50": "< 10 nM"}
{"molecule": "CCOc1cc(Nc2nc(NC3CCCCC3N)c(F)cc2C(N)=O)cc(OCC)n1 (stereo not drawn)", "target-or-test-system": "glutathione S-transferase (GST)-fused full-length human Syk protein (Homo sapiens)", "IC50": "< 10 nM"}
{"molecule": "COc1cc(Nc2nc(NC(C)(C)C(N)=O)c(F)cc2C(N)=O)cc(OC)c1", "target-or-test-system": "glutathione S-transferase (GST)-fused full-length human Syk protein (Homo sapiens)", "IC50": "100 to 1000 nM"}
{"molecule": "CCOCCOCCOc1ccc2ccc(Nc3nc(NC4CCCCC4N)c(F)cc3C(N)=O)cc2n1 (stereo not drawn)", "target-or-test-system": "glutathione S-transferase (GST)-fused full-length human Syk protein (Homo sapiens)", "IC50": "< 10 nM"}
{"molecule": "CC[C@@H](Nc1nc(Nc2ccnc(-c3cccc(OC)c3)c2)c(C(N)=O)cc1F)[C@H](C)N", "target-or-test-system": "glutathione S-transferase (GST)-fused full-length human Syk protein (Homo sapiens)", "IC50": "< 10 nM"}
{"molecule": "NC(=O)c1cc(F)c(NC2CCCCC2N)nc1Nc1cccc2[nH]ncc12 (stereo not drawn)", "target-or-test-system": "glutathione S-transferase (GST)-fused full-length human Syk protein (Homo sapiens)", "IC50": "< 10 nM"}
{"molecule": "NC(=O)c1cc(F)c(N[C@@H]2CCCC[C@@H]2N)nc1Nc1cnc2c(NCC3CC3)cccc2c1", "target-or-test-system": "glutathione S-transferase (GST)-fused full-length human Syk protein (Homo sapiens)", "IC50": "10 to 50 nM"}
{"molecule": "NC(=O)c1cc(F)c(NCc2cnc[nH]2)nc1Nc1ccc2ncccc2c1", "target-or-test-system": "glutathione S-transferase (GST)-fused full-length human Syk protein (Homo sapiens)", "IC50": "50 to 100 nM"}
{"molecule": "NC(=O)c1cc(F)c(NC2CCCCC2N)nc1Nc1cnnc(-c2ccccc2)c1 (stereo not drawn)", "target-or-test-system": "glutathione S-transferase (GST)-fused full-length human Syk protein (Homo sapiens)", "IC50": "10 to 50 nM"}
{"molecule": "Cc1nn(C)c2cc(Nc3nc(N[C@H](CC4CC4)[C@H](C)N)c(F)cc3C(N)=O)ccc12", "target-or-test-system": "glutathione S-transferase (GST)-fused full-length human Syk protein (Homo sapiens)", "IC50": "< 10 nM"}
{"molecule": "NC(=O)c1cc(F)c(N[C@@H]2CCCC[C@@H]2N)nc1Nc1ccc2[nH]ccc2c1 (relative stereo)", "target-or-test-system": "glutathione S-transferase (GST)-fused full-length human Syk protein (Homo sapiens)", "IC50": "< 10 nM"}
{"molecule": "CCC[C@@H](Nc1nc(Nc2cnc(C)c(C)c2)c(C(N)=O)cc1F)[C@H](C)N", "target-or-test-system": "glutathione S-transferase (GST)-fused full-length human Syk protein (Homo sapiens)", "IC50": "< 10 nM"}
{"molecule": "COc1ncc(Nc2nc(NC3CCCCC3N)c(F)cc2C(N)=O)cc1Cl (stereo not drawn)", "target-or-test-system": "glutathione S-transferase (GST)-fused full-length human Syk protein (Homo sapiens)", "IC50": "10 to 50 nM"}
{"molecule": "COCCn1ccc2c(Nc3nc(N[C@@H]4CCCC[C@@H]4N)c(F)cc3C(N)=O)cc(C(F)(F)F)cc21", "target-or-test-system": "glutathione S-transferase (GST)-fused full-length human Syk protein (Homo sapiens)", "IC50": "< 10 nM"}
{"molecule": "CCCC[C@H](CN)Nc1nc(Nc2cnc(C)c(C)c2)c(C(N)=O)cc1F", "target-or-test-system": "glutathione S-transferase (GST)-fused full-length human Syk protein (Homo sapiens)", "IC50": "10 to 50 nM"}
{"molecule": "NC(=O)c1cc(F)c(NC2CCCCC2N)nc1Nc1ccc2nc(OCCN3CCCC3=O)ccc2c1 (stereo not drawn)", "target-or-test-system": "glutathione S-transferase (GST)-fused full-length human Syk protein (Homo sapiens)", "IC50": "< 10 nM"}
{"molecule": "NCC1(Nc2nc(Nc3ccc4ncccc4c3)c(C(N)=O)cc2F)CC1", "target-or-test-system": "glutathione S-transferase (GST)-fused full-length human Syk protein (Homo sapiens)", "IC50": "< 10 nM"}
{"molecule": "CCCC[C@@H](Nc1nc(Nc2ccc3c(cnn3CCOC)c2)c(C(N)=O)cc1F)[C@H](C)N", "target-or-test-system": "glutathione S-transferase (GST)-fused full-length human Syk protein (Homo sapiens)", "IC50": "< 10 nM"}
{"molecule": "NC(=O)c1cc(F)c(N[C@@H]2CCCC[C@@H]2N)nc1Nc1cncc(-c2ccccn2)c1", "target-or-test-system": "glutathione S-transferase (GST)-fused full-length human Syk protein (Homo sapiens)", "IC50": "< 10 nM"}

Source: patent US8895585B2
